Source of measurements: patent US20070117743A1

# Test system: SK-BR-3
# protocol-summary: SRB colorimetric assay of cell growth and viability, SK-BR-3
# Assay type: cell-based, human
# test-conditions: 48 hours exposure
Where a SMILES comes first, the peptide text is derived from it. Bridges are numbered along the chain shown (N, C = ends). [ ]: non-standard residue; d: D form. The star is where a group is joined. d(aIle) = CC[C@H](C)[C@@H](N)C(=O)O; d(aThr) = C[C@@H](O)[C@@H](N)C(=O)O; Hexanoyl(5-Me) = CC(C)CCCC(=O)*; Orn = NCCC[C@H](N)C(=O)O; Dhb = C/C=C(\N)C(=O)O
reported-endpoint: LC50

Identify measured LC50 corresponding to C/C=C1\NC(=O)[C@H](Cc2ccccc2)NC(=O)[C@@H](C(C)C)NC(=O)[C@@H]([C@@H](C)CC)NC(=O)[C@H](NC(=O)[C@H](NC(=O)[C@H](CCCN)NC(=O)[C@H]2CCCN2C(=O)[C@H](NC(=O)[C@@H](NC(=O)[C@H](CCC(N)=O)NC(=O)CCCC(C)C)C(C)C)C(C)C)[C@@H](C)CC)[C@@H](C)OC(=O)[C@H](C(C)C)NC1=O [Compound 58, [Gln^12, noD-Val^13]-KF] ({Hexanoyl(5-Me)}-QV[dV][dP][Orn][d(aIle)][d(aThr)][d(aIle)][dV]F[Dhb]V; ester 7-C) ≥ 7.11 µM

---

# System: PANC-1
# protocol-summary: SRB colorimetric assay of cell growth and viability, PANC-1
# Type: cell-based, human
# test-conditions: 48 hours exposure; read-out: LC50 PANC-1
Where a SMILES comes first, the peptide text is derived from it. Bridges are numbered along the chain shown (N, C = ends). [ ]: non-standard residue; d: D form. The star is where a group is joined. d(aIle) = CC[C@H](C)[C@@H](N)C(=O)O; d(aThr) = C[C@@H](O)[C@@H](N)C(=O)O; hCha = N[C@@H](CCC1CCCCC1)C(=O)O; Hexanoyl(5-Me) = CC(C)CCCC(=O)*; Orn = NCCC[C@H](N)C(=O)O; Dhb = C/C=C(\N)C(=O)O
Let's look at some molecules and their measured CC50.

Worked examples follow.
[[record]]
molecule = "C/C=C1\\NC(=O)[C@H](Cc2ccccc2)NC(=O)[C@@H](C(C)C)NC(=O)[C@@H]([C@@H](C)CC)NC(=O)[C@H](NC(=O)[C@H](NC(=O)[C@H](CCCN)NC(=O)[C@H]2CCCN2C(=O)[C@H](NC(=O)[C@@H](NC(=O)[C@@H](NC(=O)[C@H](NC(=O)CCCC(C)C)[C@H](C)O)[C@@H](C)O)C(C)C)C(C)C)[C@@H](C)CC)[C@@H](C)OC(=O)[C@H](C(C)C)NC1=O [Compound 41, [D-Thr^13]-KF]"
result = "≥ 6.76 µM"

[[record]]
molecule = "C/C=C1\\NC(=O)[C@H](Cc2ccccc2)NC(=O)[C@@H](C(C)C)NC(=O)[C@@H]([C@@H](C)CC)NC(=O)[C@H](NC(=O)[C@H](NC(=O)[C@H](CCCN)NC(=O)[C@H]2CCCN2C(=O)[C@H](NC(=O)[C@@H](NC(=O)[C@@H](NC(=O)[C@H](NC(=O)CCCC(C)C)C(C)C)[C@@H](C)O)C(C)C)C(C)C)[C@@H](C)CC)[C@H](C)OC(=O)[C@H](C(C)C)NC1=O [Compound 2, [D-Thr^6]-KF]"
result = "≥ 6.77 µM"

[[record]]
molecule = "C/C=C1\\NC(=O)[C@H](Cc2ccccc2)NC(=O)[C@@H](C(C)C)NC(=O)[C@@H]([C@@H](C)CC)NC(=O)[C@H](NC(=O)[C@H](NC(=O)[C@H](CCCN)NC(=O)[C@H]2CCCN2C(=O)[C@H](NC(=O)[C@@H](NC(=O)[C@@H](NC(=O)[C@@H](CC(C)C)NC(=O)CCCC(C)C)[C@@H](C)O)C(C)C)C(C)C)[C@@H](C)CC)[C@@H](C)OC(=O)[C@H](C(C)C)NC1=O [Compound 35, [D-Leu^13]-KF]"
result = "4.67 µM"

[[record]]
molecule = "C/C=C1\\NC(=O)[C@H](Cc2ccccc2)NC(=O)[C@@H](C(C)C)NC(=O)[C@@H]([C@@H](C)CC)NC(=O)[C@H](NC(=O)[C@H](NC(=O)[C@H](CCCN)NC(=O)[C@H]2CCCN2C(=O)[C@H](NC(=O)[C@@H](NC(=O)[C@@H](NC(=O)[C@H](NC(=O)c2ccc(C(F)(F)F)cc2)C(C)C)[C@@H](C)O)C(C)C)C(C)C)[C@@H](C)CC)[C@@H](C)OC(=O)[C@H](C(C)C)NC1=O [Compound 21, [p-CF3Bza^14]-KF]"
result = "6.5 µM"

[[record]]
molecule = "C/C=C1\\NC(=O)[C@H](Cc2ccccc2)NC(=O)[C@@H](C(C)C)NC(=O)[C@@H]([C@@H](C)CC)NC(=O)[C@H](NC(=O)[C@H](NC(=O)[C@H](CCCN)NC(=O)[C@H]2CCCN2C(=O)[C@H](NC(=O)[C@@H](NC(=O)[C@@H]2CCCN2C(=O)CCCC(C)C)C(C)C)C(C)C)[C@@H](C)CC)[C@@H](C)OC(=O)[C@H](C(C)C)NC1=O [Compound 55, [Pro^12, noD-Val^13]-KF] ({Hexanoyl(5-Me)}-PV[dV][dP][Orn][d(aIle)][d(aThr)][d(aIle)][dV]F[Dhb]V; ester 7-C)"
result = "7.27 µM"

[[record]]
molecule = "C/C=C1\\NC(=O)[C@H](Cc2ccccc2)NC(=O)[C@@H](C(C)C)NC(=O)[C@@H]([C@@H](C)CC)NC(=O)[C@H](NC(=O)[C@H](NC(=O)[C@H](CCCN)NC(=O)[C@H]2CCCN2C(=O)[C@H](NC(=O)[C@H](CC(C)C)NC(=O)[C@@H](NC(=O)[C@H](NC(=O)CCCC(C)C)C(C)C)[C@@H](C)O)C(C)C)[C@@H](C)CC)[C@@H](C)OC(=O)[C@H](C(C)C)NC1=O [Compound 45, [Leu^11]-KF] ({Hexanoyl(5-Me)}-[dV]TL[dV][dP][Orn][d(aIle)][d(aThr)][d(aIle)][dV]F[Dhb]V; ester 8-C)"
result = "6.7 µM"

[[record]]
molecule = "C/C=C1\\NC(=O)[C@H](Cc2ccccc2)NC(=O)[C@@H](C(C)C)NC(=O)[C@@H]([C@@H](C)CC)NC(=O)[C@H](NC(=O)[C@H](NC(=O)[C@H](CCCN)NC(=O)[C@H]2CCCN2C(=O)[C@H](NC(=O)[C@@H](NC(=O)[C@@H](NC(=O)[C@H](NC(=O)C(F)(F)C(F)(F)C(F)(F)C(F)(F)C(F)(F)C(F)(F)F)C(C)C)[C@@H](C)O)C(C)C)C(C)C)[C@@H](C)CC)[C@@H](C)OC(=O)[C@H](C(C)C)NC1=O [Compound 26, [Pfh^14]-KF]"
result = "5.84 µM"

[[record]]
molecule = "C/C=C1\\NC(=O)[C@H](Cc2ccccc2)NC(=O)[C@@H](C(C)C)NC(=O)[C@@H]([C@@H](C)CC)NC(=O)[C@H](NC(=O)[C@H](NC(=O)[C@H](CCCN)NC(=O)[C@H]2CCCN2C(=O)[C@H](NC(=O)CCCC(C)C)C(C)C)[C@@H](C)CC)[C@@H](C)OC(=O)[C@H](C(C)C)NC1=O [Compound 31, [noVal^11, noThr^12, noD-Val^13]-KF] ({Hexanoyl(5-Me)}-[dV][dP][Orn][d(aIle)][d(aThr)][d(aIle)][dV]F[Dhb]V; ester 5-C)"
result = "6.23 µM"


Identify measured CC50 corresponding to C/C=C1\NC(=O)[C@H](Cc2ccccc2)NC(=O)[C@@H](C(C)C)NC(=O)[C@@H]([C@@H](C)CC)NC(=O)[C@H](NC(=O)[C@H](NC(=O)[C@H](CCCN)NC(=O)[C@H]2CCCN2C(=O)[C@H](NC(=O)[C@H](CCC2CCCCC2)NC(=O)[C@@H](NC(=O)[C@H](NC(=O)CCCC(C)C)C(C)C)[C@@H](C)O)C(C)C)[C@@H](C)CC)[C@@H](C)OC(=O)[C@H](C(C)C)NC1=O [Compound 9, [hCh^11]-KF] ({Hexanoyl(5-Me)}-[dV]T[hCha][dV][dP][Orn][d(aIle)][d(aThr)][d(aIle)][dV]F[Dhb]V; ester 8-C) 6.47 µM

---

# Tested on: PANC-1
# protocol-summary: SRB colorimetric assay of cell growth and viability, PANC-1
# Type: cell-based, human
# test-conditions: PANC-1; 48 hours exposure
Where a SMILES comes first, the peptide text is derived from it. Bridges are numbered along the chain shown (N, C = ends). [ ]: non-standard residue; d: D form. The star is where a group is joined. d(aIle) = CC[C@H](C)[C@@H](N)C(=O)O; d(aThr) = C[C@@H](O)[C@@H](N)C(=O)O; Hexanoyl(5-Me) = CC(C)CCCC(=O)*; Orn = NCCC[C@H](N)C(=O)O; Dhb = C/C=C(\N)C(=O)O
Let's look at some molecules and their measured TGI PANC-1.
A number alone suffices; assume Molar.

[[record]]
molecule = "C/C=C1\\NC(=O)[C@H](Cc2ccccc2)NC(=O)[C@@H](C(C)C)NC(=O)[C@@H]([C@@H](C)CC)NC(=O)[C@H](NC(=O)[C@H](NC(=O)[C@H](CCCN)NC(=O)[C@H]2CCCN2C(=O)[C@H](NC(=O)[C@@H](NC(=O)[C@H](CCCN)NC(=O)[C@H](NC(=O)CCCC(C)C)C(C)C)C(C)C)C(C)C)[C@@H](C)CC)[C@@H](C)OC(=O)[C@H](C(C)C)NC1=O [Compound 116, [Orn^12]-KF] ({Hexanoyl(5-Me)}-[dV][Orn]V[dV][dP][Orn][d(aIle)][d(aThr)][d(aIle)][dV]F[Dhb]V; ester 8-C)"
result = "6.71E−06"

[[record]]
molecule = "C/C=C1\\NC(=O)[C@H](Cc2ccccc2)NC(=O)[C@@H](C(C)C)NC(=O)[C@@H]([C@@H](C)CC)NC(=O)[C@H](NC(=O)[C@H](NC(=O)[C@H](CCCN)NC(=O)[C@H]2CCCN2C(=O)[C@H](NC(=O)[C@@H](NC(=O)[C@@H](NC(=O)[C@@H](CCCN)NC(=O)CCCC(C)C)[C@@H](C)O)C(C)C)C(C)C)[C@@H](C)CC)[C@@H](C)OC(=O)[C@H](C(C)C)NC1=O [Compound 118, [D-Orn^13]-KF]"
result = "4.74E−06"


Identify measured TGI PANC-1 corresponding to `C/C=C1\NC(=O)[C@H](Cc2ccccc2)NC(=O)[C@@H](C(C)C)NC(=O)[C@@H]([C@@H](C)CC)NC(=O)[C@H](NC(=O)[C@H](NC(=O)[C@H](CCCN)NC(=O)[C@H]2CCCN2C(=O)[C@H](NC(=O)[C@@H](NC(=O)[C@@H](NC(=O)[C@@H](C(C)C)N(CCCCCCC)CCCCCCC)[C@@H](C)O)C(C)C)C(C)C)[C@@H](C)CC)[C@@H](C)OC(=O)[C@H](C(C)C)NC1=O` 6.40E−06
